Tested on: HCC-2998 colon
Assay: NCI tumour cell line growth inhibition, 48 h
outcome_measure: TGI (µM)
// note: answer is a bare numeric in µM

Examples with their reported TGI follow.
1) O=C(/C(=C/c1ccc([N+](=O)[O-])cc1)c1ccccc1)c1ccccc1: 5.24
2) CCOC(=O)/C(Cl)=C(\C)Nc1nc2c(ccc3ccccc32)s1: 39.2
3) CN(C)CCNc1nc(-c2ccc3ccccc3c2)nc2nc[nH]c12: 10.6

Please look at the following compound next.
The compound Clc1cc(Cl)c(OCC#CI)cc1Cl , when measured on HCC-2998 colon, yielded TGI of 33.8

###

GI50: recorded values
Test system: SF-539 CNS
Experiment: NCI tumour cell line growth inhibition, 48 h

1. CCCn1c(C)nc2c1C(=O)c1ccccc1C2=O: 27.1 µM
2. O=C(/C(=C/c1ccccc1)CN1CCCCC1)c1ccccc1: 2.8 µM
3. COC(=O)C(Cc1ccccc1)NC(=O)NC(=O)NC(=O)CI (stereo not given): 11.8 µM
4. COC(=O)Cn1c2c(c3c(O)cccc31)C(=O)c1ccccc1-2: > 100 µM
5. N=C(N)c1ccc(N2CCCN(c3ccc(C(=N)N)cc3)CC2)cc1: 41.5 µM
6. O=[N+]([O-])c1cccc(-c2nc3sccn3c2-c2ccnc(NCCCNS(=O)(=O)c3cccc(F)c3)n2)c1: 4.04 µM
7. COC1CC(OS(=O)(=O)c2ccc(C)cc2)C(OC(=O)c2ccccc2)C(C)O1 (stereo not given): > 100 µM
8. N#C/C(=C\c1c(-c2ccccc2)[nH]c2ccccc12)S(=O)(=O)c1ccccc1: 2.48 µM
9. Cc1c2cc[n+](CCN3CCCCC3)cc2c(C)c2c1[nH]c1ccc(O)cc12: 7.38 µM

Please look at the following compound next.
The compound CN(C)c1ccc2c(c1)Sc1cc(N(C)C)ccc1N2C(=O)c1ccccc1 , when measured on SF-539 CNS, yielded GI50 of 38.2 µM

###

Tested on: OVCAR-4 ovarian
Experiment: NCI tumour cell line growth inhibition, 48 h
TGI: recorded values

1. COc1ccc2[nH]c3c(c2c1)CCn1c-3nc2ccccc2c1=O: > 25 µM
2. O=C(N=S(NC(=O)c1ccccc1)C(Cl)(Cl)Cl)c1ccccc1 (centres undefined): 38 µM
3. O=C1C=C(Br)c2c(-c3ccccc3)oc3cccc1c23: > 100 µM

Recorded result, C=C1CC[C@@H]2[C@](C)(COC(C)=O)[C@@H](O)CC[C@@]2(C)[C@@H]1COc1ccc2ccc(=O)oc2c1 , TGI: > 100 µM

Recorded result, Cc1c(C#N)c(=O)[nH]c(=O)n1CCN1CCN(C(=O)NCCCCCCNC(=O)N2CCN(CCn3c(C)c(C#N)c(=O)[nH]c3=O)CC2)CC1 , TGI: > 100 µM

Recorded result, CCCC(=O)NC1=C(NCC)C(=O)c2ccccc2C1=O , TGI: > 100 µM

Recorded result, COc1nc2c(c(=O)n1C)N(C(C)=O)C1C(N2)OCC(OC(C)=O)C1OC(C)=O (centres undefined) , TGI: > 10 µM

Recorded result, CCCCCC/C=C\CCCCCCCCCc1cccc(O)c1C(=O)O , TGI: > 100 µM

Recorded result, O=c1cc(-c2cccc(Cl)c2)[nH]c2ncccc12 , TGI: > 100 µM

Recorded result, Cn1cnc2nc(Cl)nc(NC(C)(C)C(C)(C)O)c21 , TGI: > 100 µM
